measurement.notes: Compound was tested for oral AUC at 0 to 24 hours
Format: ADME
Parameters: time < 24 hr, route oral
condition.label: rat

- compound: "O=C1NC(=O)C(c2cnc3ccccn23)=C1c1cn2c3c(cc(F)cc13)CN(C(=O)N1CCCCC1)CC2 [LY-2090314]"
  AUC, ng·h/mL: 3550

====

test.target: Glycogen synthase kinase-3 beta (Homo sapiens)
Sequence (P49841 whole entry): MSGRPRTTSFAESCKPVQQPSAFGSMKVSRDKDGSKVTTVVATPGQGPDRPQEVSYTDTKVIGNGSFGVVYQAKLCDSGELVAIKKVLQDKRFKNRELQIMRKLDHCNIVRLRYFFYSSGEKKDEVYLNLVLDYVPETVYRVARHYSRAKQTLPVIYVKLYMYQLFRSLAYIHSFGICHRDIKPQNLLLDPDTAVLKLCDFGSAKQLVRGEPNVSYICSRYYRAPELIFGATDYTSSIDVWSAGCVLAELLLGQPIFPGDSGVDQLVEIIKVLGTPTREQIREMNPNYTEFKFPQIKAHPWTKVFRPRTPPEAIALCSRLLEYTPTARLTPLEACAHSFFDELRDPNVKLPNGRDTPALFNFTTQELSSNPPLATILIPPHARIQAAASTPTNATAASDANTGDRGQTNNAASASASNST
measurement.notes: Inhibition of Glycogen synthase kinase-3 beta dependent Tau protein serine-396 phosphorylation in human SY5Y cells
Assay type: functional, cell-based
pIC50: −log10 of the molar value.
measured.metric: pIC50

- compound: "O=C1NC(=O)C(c2cnc3ccccn23)=C1c1cn2c3c(cccc13)CN(C(=O)N1CCCCC1)CC2"
  numeric.result: 8.80
- compound: "O=C1NC(=O)C(c2cnc3ccccn23)=C1c1cn2c3c(cc(F)cc13)CN(C(=O)N1CCCCC1)CC2 [LY-2090314]"
  numeric.result: 9.15
- compound: "CC(C)OC(=O)N1CCn2cc(C3=C(c4cnc5ccccn45)C(=O)NC3=O)c3cccc(c32)C1"
  numeric.result: 7.82
- compound: "CN(C)C(=O)N1CCn2cc(C3=C(c4cnc5ccccn45)C(=O)NC3=O)c3cccc(c32)C1"
  numeric.result: 7.92
- compound: "O=C1NC(=O)C(c2cnc3ccccn23)=C1c1cn2c3c(cccc13)CN(C(=O)N1CCOCC1)CC2"
  numeric.result: 8.59

====

measurement.notes: Oral bioavailability
Assay type: ADME, organism-based
condition.label: rat, in vivo
measured.metric: bioavailability

- compound: "O=C1NC(=O)C(c2cnc3ccccn23)=C1c1cn2c3c(cc(F)cc13)CN(C(=O)N1CCCCC1)CC2 [LY-2090314]"
  result: "23%"

====

test.target: Cyclin-dependent kinase 2 (Homo sapiens, UniProt P24941)

- line.notation: "CN(C)C(=O)N1CCn2cc(C3=C(c4cnc5ccccn45)C(=O)NC3=O)c3cccc(c32)C1"
  test.target: "Cyclin-dependent kinase 2 (Homo sapiens, UniProt P24941)"
  IC50 / nM: 2100

====

test.target: Cyclin-dependent kinase 4 (Homo sapiens)
Sequence (P11802 whole entry): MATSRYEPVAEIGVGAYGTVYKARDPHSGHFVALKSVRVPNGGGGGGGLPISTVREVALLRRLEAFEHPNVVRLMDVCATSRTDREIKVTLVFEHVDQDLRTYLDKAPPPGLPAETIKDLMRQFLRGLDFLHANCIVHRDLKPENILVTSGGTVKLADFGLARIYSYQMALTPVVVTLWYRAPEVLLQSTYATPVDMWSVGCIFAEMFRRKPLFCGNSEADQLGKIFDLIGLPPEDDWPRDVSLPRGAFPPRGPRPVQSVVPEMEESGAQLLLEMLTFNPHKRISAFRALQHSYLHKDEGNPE
measurement.notes: Inhibition of human Cyclin-dependent kinase 4
measured.metric: IC50

- line.notation: "O=C1NC(=O)C(c2cnc3ccccn23)=C1c1cn2c3c(cccc13)CN(C(=O)N1CCCCC1)CC2"
  measured.metric: "IC50"
  result: "4.8 µM"
- line.notation: "CN(C)C(=O)N1CCn2cc(C3=C(c4cnc5ccccn45)C(=O)NC3=O)c3cccc(c32)C1"
  measured.metric: "IC50"
  result: "1.5 µM"
- line.notation: "CC(C)OC(=O)N1CCn2cc(C3=C(c4cnc5ccccn45)C(=O)NC3=O)c3cccc(c32)C1"
  measured.metric: "IC50"
  result: "3.3 µM"
- line.notation: "O=C1NC(=O)C(c2cnc3ccccn23)=C1c1cn2c3c(cccc13)CN(C(=O)N1CCOCC1)CC2"
  measured.metric: "IC50"
  result: "1.7 µM"

====

Test system: Rattus norvegicus
measurement.notes: In vivo insulin (10 units) response in rats at 10 mg/kg dose
Format: functional
Quick list: Response per entry.
measured.metric: Response (%)

- line.notation: "O=C1NC(=O)C(c2cnc3ccccn23)=C1c1cn2c3c(cc(F)cc13)CN(C(=O)N1CCCCC1)CC2"
  test.target: "Rattus norvegicus"
  numeric.result: 124
- line.notation: "CC(C)OC(=O)N1CCn2cc(C3=C(c4cnc5ccccn45)C(=O)NC3=O)c3cccc(c32)C1"
  test.target: "Rattus norvegicus"
  numeric.result: 105
- line.notation: "O=C1NC(=O)C(c2cnc3ccccn23)=C1c1cn2c3c(cccc13)CN(C(=O)N1CCOCC1)CC2"
  test.target: "Rattus norvegicus"
  numeric.result: 119
- line.notation: "CN(C)C(=O)N1CCn2cc(C3=C(c4cnc5ccccn45)C(=O)NC3=O)c3cccc(c32)C1"
  test.target: "Rattus norvegicus"
  numeric.result: 104
- line.notation: "O=C1NC(=O)C(c2cnc3ccccn23)=C1c1cn2c3c(cccc13)CN(C(=O)N1CCCCC1)CC2"
  test.target: "Rattus norvegicus"
  numeric.result: 124
